Molecular target: Full-length inactive AKT1 (Homo sapiens)
Sequence (P31749 whole entry): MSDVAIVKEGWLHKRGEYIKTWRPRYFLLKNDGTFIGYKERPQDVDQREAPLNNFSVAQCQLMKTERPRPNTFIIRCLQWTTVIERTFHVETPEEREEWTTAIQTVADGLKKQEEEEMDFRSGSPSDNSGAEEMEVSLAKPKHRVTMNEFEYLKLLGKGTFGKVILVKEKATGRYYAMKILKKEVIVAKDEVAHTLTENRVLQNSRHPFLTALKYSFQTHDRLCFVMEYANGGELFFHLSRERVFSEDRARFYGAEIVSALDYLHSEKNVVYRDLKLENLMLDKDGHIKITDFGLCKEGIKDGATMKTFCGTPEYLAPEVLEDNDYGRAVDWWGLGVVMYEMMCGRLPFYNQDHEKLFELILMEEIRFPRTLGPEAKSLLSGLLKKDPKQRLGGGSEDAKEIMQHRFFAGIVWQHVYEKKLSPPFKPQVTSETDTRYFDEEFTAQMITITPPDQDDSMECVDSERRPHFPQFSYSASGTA
Assay: Inactive Akt Alpha Screen Assay
Assay type: biochemical
Conditions: values not marked with "*"; read-out: Akt1 IC50, (AlphaScreen)
PARAMETER_MEASURED: log10(IC50) (log10 of the value in µM)
All values: base-10 log of IC50 in µM.

- COMPOUND: "CC(=O)Nc1ccc(-c2ccc3nc(-c4cccnc4N)n(-c4ccc(CNC(=O)OC(C)(C)C)cc4)c3n2)cc1 [Example 259]"
  log10(IC50): -0.28
- COMPOUND: "Nc1ncccc1-c1nc2cc(-c3cccnc3)cnc2n1-c1ccc(CNS(=O)(=O)c2ccc(Cl)cc2)cc1 [Example 207]"
  log10(IC50): -1.22
- COMPOUND: "Nc1ncccc1-c1nc2cccnc2n1-c1ccc(C(=O)Nc2ccc3c(c2)C(=O)OC3)cc1 [Example 182]"
  log10(IC50): 0.04
- COMPOUND: "CN(C)C(=O)c1cccc(-c2ccc3nc(-c4cccnc4N)n(-c4ccc(C5(N)CCC5)cc4)c3n2)c1 [Example 380]"
  log10(IC50): -2.48
- COMPOUND: "Nc1ncccc1-c1nc2cc(Br)cnc2n1-c1ccc(CNS(=O)(=O)C2CC2)cc1 [Example 168]"
  log10(IC50): -0.77

Problem: Request body: readout log10(IC50), system Full-length inactive AKT1 (Homo sapiens), query Cc1cnc2c(c1)nc(-c1cccnc1N)n2-c1ccc(CNC(=O)c2cccc(F)c2)cc1 [Example 232] . Return the value.
Solution: -1.39

Problem: Request body: readout log10(IC50), system Full-length inactive AKT1 (Homo sapiens), query CC(=O)Nc1cccc(-c2ccc3nc(-c4cccnc4N)n(-c4ccc(CC(=O)NC(C)C)cc4)c3n2)c1 [Example 296] . Return the value.
Solution: -1.02

Problem: Request body: readout log10(IC50), system Full-length inactive AKT1 (Homo sapiens), query NC(=O)c1cccc(-c2ccc3nc(-c4cccnc4N)n(-c4ccc(C5(N)CCC5)cc4)c3n2)c1 [Example 365] . Return the value.
Solution: -2.52

Problem: Request body: readout log10(IC50), system Full-length inactive AKT1 (Homo sapiens), query Nc1ncccc1-c1nc2ccc(-c3cccc(OC(F)(F)F)c3)nc2n1-c1ccc(C2(N)CCC2)cc1 [Example 426] . Return the value.
Solution: -2.30

Problem: Request body: readout log10(IC50), system Full-length inactive AKT1 (Homo sapiens), query CC(=O)Nc1ccc(-c2ccc3nc(-c4cccnc4N)n(-c4ccc(CNC(=O)c5cccc(F)c5)cc4)c3n2)cc1 [Example 291] . Return the value.
Solution: -1.25

Problem: Request body: readout log10(IC50), system Full-length inactive AKT1 (Homo sapiens), query Cc1cnc2c(c1)nc(-c1cccnc1N)n2-c1ccc(CNC(=O)c2cccc(N(C)C)c2)cc1 [Example 211] . Return the value.
Solution: -1.21

Problem: Request body: readout log10(IC50), system Full-length inactive AKT1 (Homo sapiens), query CC(=O)Nc1ccc(-c2ccc3nc(-c4cccnc4N)n(-c4ccc(CNC(=O)c5ccccc5)cc4)c3n2)cc1 [Example 236] . Return the value.
Solution: -1.48

Problem: Request body: readout log10(IC50), system Full-length inactive AKT1 (Homo sapiens), query CC(=O)Nc1cccc(C(=O)NCc2ccc(-n3c(-c4cccnc4N)nc4cc(C)c(C)nc43)cc2)c1 [Example 347] . Return the value.
Solution: -1.27

Problem: Request body: readout log10(IC50), system Full-length inactive AKT1 (Homo sapiens), query Nc1ncccc1-c1nc2ccc(-c3ccc(CO)cc3)nc2n1-c1ccc(C2(N)CCC2)cc1 [Example 383] . Return the value.
Solution: -2.43

Problem: Request body: readout log10(IC50), system Full-length inactive AKT1 (Homo sapiens), query CC(=O)Nc1cccc(-c2ccc3nc(-c4cccnc4N)n(-c4ccc(CNS(=O)(=O)c5cn(C)cn5)cc4)c3n2)c1 [Example 325] . Return the value.
Solution: -1.48
